System: barnyardgrass (Echinochloa crus-qalli L.)
Experiment: Test Example 1: foliar treatment, growth inhibition rate on 14th day
Type: in vivo
Conditions: active ingredient amount 31 g/ha, 14th day after application
quantity kind: Growth inhibition rate (%) Barnyardgrass
Numbers only, in %.

Example molecules with recorded Growth inhibition rate (%) Barnyardgrass:
[[record]]
molecule = "COC(=O)OC(C)Oc1c(C)nn(C)c(=O)c1-c1cc(Oc2cnc3cc(Cl)ccc3n2)ccc1C (centres unmarked) [Compound 3-44]"
quantity_kind = "Growth inhibition rate (%) Barnyardgrass"
reported_measurement = 100

[[record]]
molecule = "CC(=O)Oc1c(C)nn(C)c(=O)c1-c1cc(Oc2ncc(C(F)(F)F)cc2F)ccc1C [Compound 2-63]"
quantity_kind = "Growth inhibition rate (%) Barnyardgrass"
reported_measurement = 100

[[record]]
molecule = "CC(=O)Oc1c(C)nn(C)c(=O)c1-c1cc(Nc2ncc(C(F)(F)F)cc2Cl)ccc1C [1-146]"
quantity_kind = "Growth inhibition rate (%) Barnyardgrass"
reported_measurement = 98


Report Growth inhibition rate (%) Barnyardgrass for every entry below.
1. COCOc1c(C)nn(C)c(=O)c1-c1cc(Oc2ncc(C(F)(F)F)cc2Cl)ccc1C [1-132]
2. Cc1ccc(Oc2ncc(C#N)cc2Cl)cc1-c1c(O)c(C)nn(C)c1=O [Compound 2-2]
3. CC(=O)Oc1c(C)nn(C)c(=O)c1-c1cc(Oc2cnc(C(F)(F)F)cn2)ccc1C [Compound 2-195]

A.
1: 100; 2: 70; 3: 93

Report Growth inhibition rate (%) Barnyardgrass for every entry below.
1. Cc1ccc(Oc2ncc(C(F)(F)F)cc2Cl)cc1-c1c(OS(C)(=O)=O)c(C)nn(C)c1=O [1-62]
2. Cc1ccc(Oc2cnc3cc(Cl)ccc3n2)cc1-c1c(OC(=O)c2ccccc2)c(C)nn(C)c1=O [Compound 3-38]
3. Cc1ccc(Oc2cnc3cc(Cl)ccc3n2)cc1-c1c(OCc2ccccc2)c(C)nn(C)c1=O [Compound 3-41]
4. Cc1ccc(Oc2ccc3cc(Br)ccc3n2)cc1-c1c(O)c(C)nn(C)c1=O [Compound 2-94]
5. CCc1nn(C)c(=O)c(-c2cc(Oc3nc4ccc(Cl)cc4o3)ccc2C)c1O [Compound 2-89]

A.
1: 100; 2: 100; 3: 100; 4: 100; 5: 95

Report Growth inhibition rate (%) Barnyardgrass for every entry below.
1. CC(=O)Oc1c(C)nn(C)c(=O)c1-c1cc(Oc2cnc3cc(Cl)ccc3n2)ccc1C [Compound 3-33]
2. CCc1nn(C)c(=O)c(-c2cc(Oc3ncc(C(F)(F)F)cc3Cl)ccc2C)c1OC(C)=O [1-137]

A.
[100, 100]

Report Growth inhibition rate (%) Barnyardgrass for every entry below.
1. Cc1ccc(Oc2nc3cc(Cl)ccc3o2)cc1-c1c(O)cnn(C)c1=O [Compound 2-173]
2. CC(=O)Oc1c(C)nn(C)c(=O)c1-c1cc(Oc2cc(C(F)(F)F)c(C(F)(F)F)cn2)ccc1C [Compound 2-126]
3. CC(=O)Oc1cnn(C)c(=O)c1-c1cc(Oc2ncc(C(F)(F)F)cc2Cl)ccc1C [1-171]
4. Cc1ccc(Oc2ncc(C(F)(F)F)cc2Br)cc1-c1c(O)c(C)nn(C)c1=O [Compound 2-83]
5. CCn1ncc(O)c(-c2cc(Oc3nc4ccc(Cl)cc4o3)ccc2C)c1=O [Compound 2-167]
6. CC(=O)Oc1c(C)nn(C)c(=O)c1-c1cc(Oc2ncc(C(F)(F)F)cc2Cl)ccc1C [1-40]
7. Cc1ccc(Oc2ncc(C(F)(F)F)cc2F)cc1-c1c(O)c(C)nn(C)c1=O [Compound 2-5]

A.
1. 99
2. 100
3. 100
4. 99
5. 100
6. 100
7. 100

* * *

Test system: green foxtail (Setaria viridis L.)
Experiment: Test Example 2: soil application on the day after sowing, growth inhibition rate on 14th day
Type: in vivo
Conditions: active ingredient amount 500 g/ha, 14th day after application
quantity kind: Growth inhibition rate (%) Green foxtail
Answers are plain numbers, in %.

Report Growth inhibition rate (%) Green foxtail for every entry below.
1. Cc1ccc(Oc2cnc3ccccc3c2)cc1-c1c(O)c(C)nn(C)c1=O [Compound 2-112]
2. CC(=O)Oc1c(C)nn(C)c(=O)c1-c1cc(Oc2ccc3ccccc3n2)ccc1C [Compound 2-142]
3. CC(=O)Oc1c(C)nn(C)c(=O)c1-c1cc(Oc2cnc3ccccc3c2)ccc1C [Compound 2-146]
4. Cc1ccc(Oc2ccc3ccccc3n2)cc1-c1c(O)c(C)nn(C)c1=O [Compound 2-108]

A.
100
93
100
93

* * *

Tested on: barnyardgrass (Echinochloa crus-qalli L.)
Assay: Test Example 1: foliar treatment, growth inhibition rate on 14th day
Assay type: in vivo
Details: active ingredient amount 31 g/ha, 14th day after application
quantity kind: Growth inhibition rate (%) Barnyardgrass
Answers are plain numbers, in %.

[[record]]
molecule = "CCc1ccc(Oc2nc3ccccc3o2)cc1-c1c(O)c(C)nn(C)c1=O [Compound 2-166]"
reported_measurement = 100

[[record]]
molecule = "Cc1ccc(Oc2nc3ccc(Br)cc3s2)cc1-c1c(O)c(C)nn(C)c1=O"
reported_measurement = 98

[[record]]
molecule = "CC(=O)Oc1c(C)nn(C)c(=O)c1-c1cc(Oc2nc3ccc(Br)cc3s2)ccc1C"
reported_measurement = 100

[[record]]
molecule = "CC(=O)Oc1c(C)nn(C)c(=O)c1-c1cc(Oc2ncc(C(F)(F)F)cc2Cl)ccc1C1CC1"
reported_measurement = 100

[[record]]
molecule = "CCn1nc(C)c(O)c(-c2cc(Oc3nc4ccc(Cl)cc4o3)ccc2C)c1=O"
reported_measurement = 100


Report Growth inhibition rate (%) Barnyardgrass for every entry below.
1. Cc1ccc(Oc2nc3cc(Br)ccc3o2)cc1-c1c(O)cnn(C)c1=O
2. Cc1ccc(Oc2cnc3cc(Cl)ccc3n2)cc1-c1c(O)c(C)nn(C)c1=O [Compound 3-1]
3. Cc1ccc(Oc2ncc(Br)cc2Cl)cc1-c1c(O)c(C)nn(C)c1=O
4. Cc1ccc(Oc2nc3ccc(Cl)cc3s2)cc1-c1c(O)c(C)nn(C)c1=O
5. CC(=O)Oc1c(C)nn(C)c(=O)c1-c1cc(Oc2nc3ccc(C(F)(F)F)nc3o2)ccc1C
6. CCc1ccc(Sc2ncc(C(F)(F)F)cc2Cl)cc1-c1c(OC(C)=O)c(C)nn(C)c1=O
7. Cc1ccc(Oc2nc3ccc(Cl)cc3o2)cc1-c1c(O)cnn(C)c1=O

A.
1: 95; 2: 100; 3: 75; 4: 99; 5: 100; 6: 100; 7: 100

Report Growth inhibition rate (%) Barnyardgrass for every entry below.
1. Cc1ccc(Oc2cnc3cc(Cl)ccc3n2)cc1-c1c(O)c(C)nn(C)c1=O [Compound 2-7]
2. CC(=O)Oc1c(C)nn(C)c(=O)c1-c1cc(Oc2ncc(Cl)cc2F)ccc1C
3. CCc1ccc(Oc2ncc(C(F)(F)F)cc2Cl)cc1-c1c(OC(C)=O)c(C)nn(C)c1=O
4. Cc1nn(C)c(=O)c(-c2cc(Oc3ncc(C(F)(F)F)cc3Cl)ccc2OC(F)(F)F)c1O

A.
1. 100
2. 99
3. 100
4. 100

Q. Value wanted: Growth inhibition rate (%) Barnyardgrass (barnyardgrass (Echinochloa crus-qalli L.)) of entry `Cc1nn(C)c(=O)c(-c2cc(Oc3nc4ccc(Cl)cc4o3)ccc2OC(F)(F)F)c1O`
A. 98

* * *

For each record, write down the corresponding Growth inhibition rate (%) Barnyardgrass.
Test system: barnyardgrass (Echinochloa crus-qalli L.)
Assay: Test Example 1: foliar treatment, growth inhibition rate on 14th day
Format: in vivo
Conditions: active ingredient amount 31 g/ha, 14th day after application
One number for each entry, in %.

Example molecules with recorded Growth inhibition rate (%) Barnyardgrass:
[[record]]
molecule = "COC(=O)OC(C)Oc1c(C)nn(C)c(=O)c1-c1cc(Oc2ncc(C(F)(F)F)cc2Cl)ccc1C (centres unmarked)"
unit_tag = "%"
reported_measurement = 100

[[record]]
molecule = "CC(=O)Oc1c(C)nn(C)c(=O)c1-c1cc(Oc2nc3ccc(C)cc3s2)ccc1C"
unit_tag = "%"
reported_measurement = 85

[[record]]
molecule = "Cc1ccc(Oc2nc3ccc(Br)cc3o2)cc1-c1c(O)cnn(C)c1=O"
unit_tag = "%"
reported_measurement = 100

[[record]]
molecule = "CCc1ccc(Oc2ncc(C(F)(F)F)cc2Cl)cc1-c1c(O)cnn(CC)c1=O"
unit_tag = "%"
reported_measurement = 100


Report Growth inhibition rate (%) Barnyardgrass for every entry below.
1. Cc1ccc(Oc2ncc(Cl)cc2C(F)(F)F)cc1-c1c(O)c(C)nn(C)c1=O
2. CCc1ccc(Oc2nc3ccccc3o2)cc1-c1c(O)c(C)nn(C)c1=O [Compound 2-165]
3. Cc1ccc(Oc2ncc(C(F)(F)F)cc2Cl)c(C)c1-c1c(O)c(C)nn(C)c1=O

A.
[80, 100, 100]

Report Growth inhibition rate (%) Barnyardgrass for every entry below.
1. Cc1ccc(Oc2ncc(C(F)(F)F)cc2Cl)cc1-c1c(O)c(C)nn(C)c1=O
2. CCCCC(=O)Oc1c(C)nn(C)c(=O)c1-c1cc(Oc2ncc(C(F)(F)F)cc2Cl)ccc1C
3. CC(=O)Oc1c(C)nn(C)c(=O)c1-c1cc(Oc2nc3cc(Cl)ccc3o2)ccc1C
4. CCCCC(=O)Oc1c(C)nn(C)c(=O)c1-c1cc(Oc2cnc3cc(Cl)ccc3n2)ccc1C
5. CC(=O)Oc1c(C)nn(C)c(=O)c1-c1cc(Oc2ccc3cc(Br)ccc3n2)ccc1C
6. Cc1nn(C)c(=O)c(-c2cc(Oc3ncc(C(F)(F)F)cc3Cl)ccc2C2CC2)c1O
7. Cn1ncc(O)c(-c2cc(Oc3ncc(C(F)(F)F)cc3Cl)ccc2OC(F)(F)F)c1=O

A.
1. 100
2. 100
3. 90
4. 100
5. 100
6. 100
7. 100

Report Growth inhibition rate (%) Barnyardgrass for every entry below.
1. Cc1ccc(Oc2ncc(C(F)(F)F)cc2Cl)cc1-c1c(OC(=O)c2nn(C)cc2C)c(C)nn(C)c1=O
2. CCc1nn(C)c(=O)c(-c2cc(Oc3cnc4cc(Cl)ccc4n3)ccc2C)c1O

A.
1: 100; 2: 100

Q. Value wanted: Growth inhibition rate (%) Barnyardgrass (barnyardgrass (Echinochloa crus-qalli L.)) of entry `CCc1ccc(Oc2ncc(C(F)(F)F)cc2Cl)cc1-c1c(O)c(C)nn(C)c1=O`
A. 100
